Hi, quick share: literature IC50 data for hCRTH2 receptor (Homo sapiens (Human), UniProt Q9Y5Y4), several sources combined.
parameter measured: IC50

line notation: CCN(Cc1cc(C(F)(F)F)ccc1-c1cc([C@@H](C)C(=O)N2C(=O)O[C@@H](c3ccccc3)[C@H]2C)cc(C(F)(F)F)c1)C(=O)C1CC1
result: 1 to 30 µM
//
line notation: COc1ccc(CC(=O)O)cc1Oc1ccc(-c2cn[nH]c2)cc1CN1C(=O)O[C@H](c2ccccc2)[C@@H]1C
result: < 0.3 µM
//
line notation: O=C(O)COc1ccc(-c2ccc(F)c3c2CN(C(=O)OCc2ccccc2)CC3)cc1
result: 0.209 µM
//
line notation: CCCCC(=O)N(Cc1ccc2ccccc2c1)c1cc(-c2nnn[nH]2)ccc1F
result: 0.023 µM
//
line notation: CCCCC(=O)N(Cc1ccc(OC(F)(F)F)cc1)c1cc(Cl)cc(-c2nnn[nH]2)c1
result: 0.025 µM
//
line notation: CC(C)C(=O)N(Cc1ccc(S(C)(=O)=O)cc1)c1cc(F)cc(-c2nnn[nH]2)c1
result: 0.019 µM
//
line notation: CCN(Cc1cc(C(F)(F)F)ccc1-c1cc(CC(N)=O)ccc1OC)C(=O)C1CC1
result: 1 to 30 µM

----------
Several reports have described IC50 for hCRTH2 receptor (Homo sapiens (Human), UniProt Q9Y5Y4); a selection of those results is presented here.
parameter measured: IC50 (nM)

compound: COc1ccc(CC(=O)O)cc1-c1ccc(F)c2c1CN(C(=O)CC(C)c1cccnc1)CC2 (racemic)
assay system: hCRTH2 receptor (Homo sapiens (Human), UniProt Q9Y5Y4)
Sequence (Q9Y5Y4 whole entry): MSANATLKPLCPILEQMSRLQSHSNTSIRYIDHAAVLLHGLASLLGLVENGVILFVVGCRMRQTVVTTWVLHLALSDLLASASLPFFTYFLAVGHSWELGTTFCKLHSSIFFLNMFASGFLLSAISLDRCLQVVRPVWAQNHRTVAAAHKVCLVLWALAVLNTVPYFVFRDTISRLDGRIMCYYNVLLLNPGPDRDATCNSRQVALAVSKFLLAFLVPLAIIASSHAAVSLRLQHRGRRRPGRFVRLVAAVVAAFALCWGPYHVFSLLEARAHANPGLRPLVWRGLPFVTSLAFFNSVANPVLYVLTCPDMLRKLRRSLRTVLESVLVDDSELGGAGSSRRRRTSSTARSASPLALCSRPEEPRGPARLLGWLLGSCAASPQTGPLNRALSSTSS
parameter measured: IC50
value units: nM
inequality operator: =
numeric readout: 32.7
--
compound: CCN(Cc1cc(C(F)(F)F)ccc1-c1cc(F)cc(CC(=O)O)c1)C(=O)OCc1ccccc1
assay system: hCRTH2 receptor (Homo sapiens (Human), UniProt Q9Y5Y4)
parameter measured: IC50
value units: nM
inequality operator: <
numeric readout: 300
--
compound: CCOc1ccc(CC(=O)O)cc1-c1ccc(F)c2c1CN(C(=O)CCc1ccc(F)cc1)CC2
assay system: hCRTH2 receptor (Homo sapiens (Human), UniProt Q9Y5Y4)
parameter measured: IC50
value units: nM
inequality operator: =
numeric readout: 1.7
--
compound: COc1ccc(CC(=O)O)cc1Oc1cc(Br)ccc1CN1C(=O)O[C@H](c2ccccc2)[C@@H]1C
assay system: hCRTH2 receptor (Homo sapiens (Human), UniProt Q9Y5Y4)
parameter measured: IC50
value units: nM
inequality operator: <
numeric readout: 300

----------
Here we gather IC50 data for hCRTH2 receptor (Homo sapiens (Human), UniProt Q9Y5Y4) reported by several publications.
parameter measured: IC50 (nM)

compound: COc1cc(CC(=O)O)cc(OC)c1-c1ccc(F)c2c1CN(C(=O)OCc1ccccc1)CC2
parameter measured: IC50
value units: nM
inequality operator: =
numeric readout: 1.7
--
compound: COc1ccc(CC(=O)O)cc1-c1ccc(F)c2c1CN(C(=O)C1CC(=O)c3ccccc31)CC2 (racemic)
parameter measured: IC50
value units: nM
inequality operator: =
numeric readout: 862
--
compound: O=C(O)Cn1cc(CCN(Cc2ccccc2)S(=O)(=O)c2ccc(F)cc2)c2cc(Cl)ccc21
parameter measured: IC50
value units: nM
inequality operator: =
numeric readout: 33
--
compound: COC(=O)N(Cc1cc(C(F)(F)F)ccc1-c1cc(CC(=O)O)ccc1OC)C1Cc2ccccc2C1
parameter measured: IC50
value units: nM
inequality operator: <
numeric readout: 300
